- Measurement target: human insulin receptor (HIR) (human, UniProt P06213)
- Test name: competition
pKd: −log10 of the molar value. Non-standard residues stand in square brackets, D forms with d. No end group written: not given here. Hyp = O=C(O)[C@@H]1C[C@@H](O)CN1
Metric: pKd

In the examples that follow, each entry is paired with its recorded pKd.
> print(dat)
             binder  recorded.result
1  AFYGWFAKK [S215]           < 4.70
2  AFYDWFAKK [S167]           < 4.70

Qu. Look up pKd of GSLDESFYDWF [S398] and report it.
Ans. < 4.70

Qu. Look up and state reported pKd for FHENFADWFVRQVSKK [S220]
Ans. < 4.70

Qu. For RD[Hyp]FYDWEDD[dI] [S268] , write its pKd.
Ans. 6.35

Qu. Could you please provide reported pKd for APVSTEELRWGALLFGQWAG [S283] ? Thanks!
Ans. < 4.70

Qu. Output pKd of ESFYDWFER [S401]
Ans. < 4.70

Qu. Please look at this binder and report its pKd: [dF][dH][dE][dN][dF][dY][dD][dW][dF][dV][dR][dQ][dV][dS][dK][dK] [S114]
Ans. 5.08

Qu. Give the value of pKd reported for the following: AFYDWF [S182]
Ans. < 4.70

Qu. For the binder Ac-FYDWF [S184] , report pKd.
Ans. < 4.70

Qu. Return pKd (reported value) for this binder: FYDWFKK [S166]
Ans. < 4.70
